// data source = ChEMBL document CHEMBL2401682

TEST_DESCRIPTION: Half life in human liver microsomes
Assay type: ADME, Microsome
PROPERTY_MEASURED: half-life (min)
Hi! Could you send only the number? It should be in min, unit omitted.

[in] What measured half-life goes with CC1=C2CC(C)(C)/C=C/C(=O)/C(C)=C\C3=C[C@H](C)C[C@]3(O2)C1=O ?
[out] 6

----------
Consider the following compounds and their measured EC50 readings.
Test system: Plasmodium falciparum
TEST_DESCRIPTION: Antimalarial activity against chloroquine-sensitive Plasmodium falciparum 3D7 infected in O-positive erythrocytes assessed as parasite growth inhibition after 72 hrs by DNA staining-based assay
Format: functional, organism-based
RUN_PARAMETERS: 3D7, 72 h
# value in µM; strip the unit string

>>> recorded_number("C/C1=C/C2=C[C@H](C)C[C@@]23O[C@]2(CC(C)(C)C[C@@H]2[C@@]1(O)C(F)(F)F)[C@@H](C)C3=O")
15

[in] Record request: EC50 value, item CC1=C2CC(C)(C)/C=C/[C@H](OC(=S)Sc3ccccc3)/C(C)=C\C3=C[C@H](C)C[C@]3(O2)C1=O
[out] 15

[in] Repeat with CC1=C2CC(C)(C)/C=C/C(=O)/C(C)=C\C3=C[C@H](C)C[C@]3(O2)[C@@]1(O)C(F)(F)F
[out] 15

[in] Here is the next compound: CC1=C2CC(C)(C)/C=C/C/C(C)=C\C3=C[C@H](C)C[C@]3(O2)C1=O
[out] 15
